measured.target: hRR (hRR1 + hRR2) (Homo sapiens, UniProt P23921)
Sequence (P23921 whole entry): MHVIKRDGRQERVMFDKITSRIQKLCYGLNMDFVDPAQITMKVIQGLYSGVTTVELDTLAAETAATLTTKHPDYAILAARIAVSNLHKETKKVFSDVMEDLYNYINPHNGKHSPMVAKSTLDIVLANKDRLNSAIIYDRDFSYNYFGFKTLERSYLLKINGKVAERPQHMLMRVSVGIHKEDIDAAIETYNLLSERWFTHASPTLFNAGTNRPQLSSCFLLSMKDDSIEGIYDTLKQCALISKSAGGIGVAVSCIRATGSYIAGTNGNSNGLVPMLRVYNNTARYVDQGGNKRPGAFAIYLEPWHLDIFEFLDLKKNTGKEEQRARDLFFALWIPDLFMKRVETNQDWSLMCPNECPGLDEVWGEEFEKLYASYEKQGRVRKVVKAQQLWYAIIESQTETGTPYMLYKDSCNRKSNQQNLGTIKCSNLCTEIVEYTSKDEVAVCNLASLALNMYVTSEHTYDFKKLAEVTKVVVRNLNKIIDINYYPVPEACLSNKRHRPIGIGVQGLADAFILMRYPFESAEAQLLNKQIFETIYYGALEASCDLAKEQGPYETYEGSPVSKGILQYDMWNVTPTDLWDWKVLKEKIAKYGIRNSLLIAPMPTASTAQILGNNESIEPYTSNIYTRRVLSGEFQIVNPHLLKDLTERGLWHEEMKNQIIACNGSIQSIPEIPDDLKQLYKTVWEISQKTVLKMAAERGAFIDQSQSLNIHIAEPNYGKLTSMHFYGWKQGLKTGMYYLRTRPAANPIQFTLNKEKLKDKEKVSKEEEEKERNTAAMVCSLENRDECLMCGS
Sequence (P31350 whole entry partner): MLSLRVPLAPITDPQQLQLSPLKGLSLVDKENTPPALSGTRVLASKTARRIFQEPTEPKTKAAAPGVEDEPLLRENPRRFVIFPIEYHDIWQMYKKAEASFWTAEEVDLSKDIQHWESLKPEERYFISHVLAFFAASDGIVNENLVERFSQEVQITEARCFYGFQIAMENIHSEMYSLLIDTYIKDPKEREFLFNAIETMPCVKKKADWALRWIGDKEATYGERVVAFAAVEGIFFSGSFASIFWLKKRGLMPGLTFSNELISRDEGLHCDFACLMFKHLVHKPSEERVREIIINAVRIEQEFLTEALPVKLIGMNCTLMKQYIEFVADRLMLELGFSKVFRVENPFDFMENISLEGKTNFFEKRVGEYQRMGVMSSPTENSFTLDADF
pIC50: −log10 of the molar value.

molecule | pIC50
O=[N+]([O-])c1ccc2c(ccn2[C@H]2C[C@H](O)[C@@H](COP(=O)(O)OP(=O)(O)OP(=O)(O)O)O2)c1 [5-NITP] | 3.77
